test: in vivo; parameters: species or system ddy-N mice; conditions: mouse
Value kind: LD50

Ask: Request the reported LD50 associated with CC/C=C\C/C=C\C/C=C\C/C=C\C/C=C\C/C=C\CCC(=O)OCC [ethyl docosahexaenoate]
Result: > 2000 mg/kg
